- System: rodent lifetime carcinogenesis bioassay, tumor incidence TD50
- TEST DESCRIPTION: carcinogenic potency in animals, long-term in vivo studies, CPDB compilation (AID 1745844)
- MEASUREMENT CONTEXT: mouse; strain B6C3F1; males; in feed; site: lung; lesion: alveolar/bronchiolar adenoma + alveolar/bronchiolar carcinoma; dosed 80 weeks; study length 90 weeks
MEASUREMENT LABEL: TD50 (mg/kg/day)

- ClC1=C(Cl)[C@]2(Cl)[C@@H]3[C@H]4C[C@H]([C@@H]5O[C@H]45)[C@@H]3[C@@]1(Cl)C2(Cl)Cl: 1.27
- ClC1=C(Cl)[C@]2(Cl)[C@H]3[C@H]([C@@H]4C=C[C@H]3C4)[C@@]1(Cl)C2(Cl)Cl: 3.2
- ClC1=C(Cl)C2(Cl)C3C(Cl)C(Cl)CC3C1(Cl)C2(Cl)Cl (stereo not drawn): 656
